# tgt: T1, Human B7-H3 extracellular domain (NCBI Reference Sequence: NM_025240.2) (human, UniProt Q5ZPR3 29-466)
# T1 chain: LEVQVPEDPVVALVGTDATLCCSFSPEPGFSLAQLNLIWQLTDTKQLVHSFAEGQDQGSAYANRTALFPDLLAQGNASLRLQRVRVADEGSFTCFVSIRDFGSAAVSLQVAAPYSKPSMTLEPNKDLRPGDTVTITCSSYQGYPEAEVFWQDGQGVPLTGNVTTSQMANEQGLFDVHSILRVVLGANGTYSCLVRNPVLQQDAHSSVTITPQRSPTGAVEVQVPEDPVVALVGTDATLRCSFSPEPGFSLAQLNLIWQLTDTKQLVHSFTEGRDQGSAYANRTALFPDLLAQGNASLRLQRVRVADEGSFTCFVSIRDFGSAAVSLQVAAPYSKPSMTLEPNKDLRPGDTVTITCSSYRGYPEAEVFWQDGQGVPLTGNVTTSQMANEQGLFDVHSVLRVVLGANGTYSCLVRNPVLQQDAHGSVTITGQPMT
# measurement notes: SPR, Biacore 8K, antibody captured through Fc, B7-H3 ECD as analyte
experimental endpoint: koff (s⁻¹)
Give the quantity in s⁻¹, number only.

#23-5424 (VH5-4-VL2-4) (antibody, IgG1, V domains shown, Humanized antibody from murine #23; also called #23-VH5-4/VL2-4) VH: QVQLVQSGAEVKKPGESLKISCKASGYNFNNYWMHWVRQRPGKGLEWIGMIHPNSGTFNYNERFKRKATLTVDKSISTAYLQWSSLKAEDTAMYYCAKSTALATDYWGQGTLVTVSS VL: QIVLTQSPSTLSASVGDRVTMTCSASSSVSYMYWYQQKPGKAPKLLIYDTSNLASGVPIRFSGSGSGTSYTLTISSMQPDDFVTYYCQQWSSYPLTFGQGTKLEIK :: 0.000356
#27-22 (VH2-2-VL2-2) (antibody, IgG1, V domains shown, Humanized antibody from murine #27; also called #27-VH2-2/VL2-2) VH: QVQLVQSGAEVVKPGASVKVSCKASGYTFTNYWMHWVKQAPGQGLEWIGMIHPNSGAFNYNERFKTRVTITVDKSTSTAYMELSSLRSEDTAVYYCARSTALATGYWGQGTLLTVSS VL: DIQLTQSPSFLSASVGDRVTMTCSASSSVSYMYWYQQKPGKSPKLLIYDTSNLASGVPSRFSGSGSGTEYTLTISSLQPEDFVTYYCQQWSSYPLTFGQGTKLEIK :: 0.000365
#27-21 (VH2-2-VL2-1) (antibody, V domains shown, Humanized antibody from murine #27; Detected with anti-human IgG and captured through Fc; also called #27-VH2-2/VL2-1) VH: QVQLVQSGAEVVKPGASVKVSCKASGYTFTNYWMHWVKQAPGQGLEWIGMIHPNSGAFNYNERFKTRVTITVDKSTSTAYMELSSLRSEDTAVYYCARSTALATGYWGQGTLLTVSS VL: DIQLTQSPSFLSASVGDRVTITCSASSSVSYMYWYQQKPGKSPKLLIYDTSNLASGVPSRFSGSGSGTEYTLTISSLQPEDFATYYCQQWSSYPLTFGQGTKLEIK :: 0.000431

Would you kindly look at the next entry?
koff for #27-2121 (VH2-1-VL2-1) (antibody, IgG1, V domains shown, Humanized antibody from murine #27; also called #27-VH2-1/VL2-1) VH: QVQLVQSGAEVVKPGASVKVSCKASGYTFTNYWMHWVRQAPGQGLEWMGMIHPNSGAFNYNERFKTRVTITVDKSTSTAYMELSSLRSEDTAVYYCARSTALATGYWGQGTLVTVSS VL: DIQLTQSPSFLSASVGDRVTITCSASSSVSYMYWYQQKPGKSPKLLIYDTSNLASGVPSRFSGSGSGTEYTLTISSLQPEDFATYYCQQWSSYPLTFGQGTKLEIK ?
0.000433
